tested on: K4 kissing-loop RNA reporter; assay: apparent KD of K4 kissing-loop reporter; higher = weaker reporter binding; details: Eterna round: R107; input ligand: none
quantity: apparent KD of K4 kissing-loop reporter (nM)
# number only, unit nM dropped from output

Hello, I am looking for reported apparent KD of K4 kissing-loop reporter with K4 kissing-loop RNA reporter for AAGUCAUAGGCAGGAUAUGCAUAGUAAUAAGGCAAUAUCUACGUAUAGAGUGAUGUUUUGUACCAGGCAGAAGGGCUACAUCAGU [FMN B Excl V9 (+4A/C)] . Could you help?
514

# value lookup — system K4 kissing-loop RNA reporter, readout apparent KD of K4 kissing-loop reporter, item UGUAUGGACUGAAGGAGCGGUAUAUAAACUGAGUGAUGUUCGGCAGAUAAAGGCGCAAGCCACCAGGUAGGUCGCAGUCCAUACU [KL-SSArg B2]
381

Request: apparent KD of K4 kissing-loop reporter, test system K4 kissing-loop RNA reporter, entry UUAGUCUAGAGAAGGAGCGAGUGAUGUUUGCUAAGAUCUAUGAUAUCAUAGAUCAAAUUUACUCAGGUAGGUCGCUCUAGACAUU [AK4 Exc Arginine B]
182

Which measured apparent KD of K4 kissing-loop reporter belongs to GCUAAGGAGUGAUGUUCCAAGUGAUGUUAACGAGGACCGGUACGGCCGCCACUCGAUACGGCCGGAAAGUAAGAUAAACUACAGC [Same State - Tryptophan A (Freestyle 5)] , tested on K4 kissing-loop RNA reporter?;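 further: bound reporter read as fluorescence of individual clusters on recovered sequencing chips by microscopy, with normalized cluster intensities fitted with a binding model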
93.2

Find apparent KD of K4 kissing-loop reporter (K4 kissing-loop RNA reporter) for the entry UUUGGUAUCUCGGCCGCCACUCGUGGGAAAUGGGCCUCAGGGAUAUAGUGAUGUUAUGUAAAGAAGAGGACCGGGAGAAGGAAGG [ExTryptoB.Dk]
355

Short answer please: apparent KD of K4 kissing-loop reporter, K4 kissing-loop RNA reporter, entry UGUUAUGUAUCAGGAUAUUAGUGAUGUUUGUUUAUGUUAGUGAUGUUGAUAUUUGUUUUAUGUAUUUAAGAAGGGAUUGAGAAGU [ffcfxmullin]
45.6

* * *

# apparent KD of MS2 coat protein values compiled below
tested on: MS2 coat protein; test: apparent KD of MS2 coat protein; designed switch direction (-1 OFF switch, 1 ON switch): -1; higher = weaker reporter binding; settings: input ligand: microRNA oligo, concentration not stated
Value expressed in nM; do not type the unit.

>>> value("CCGGUUGGCGCAGGAUAUACAUGAGGAUCACCCAUGUUGAUGAGGAUCACCCAUCAGUUUUUGUUGUAGAAGGGUGGCCCGGCC (Eterna round: R96, puzzle: Exclusion NG 2)")
16.2

Find the recorded apparent KD of MS2 coat protein belonging to AAAUCACAUGAGGAUCACCCAUGUGAGGAUAUGAUACUAUGUACUUCGGUACAUAGUAUCAGAAGGCAUAUGGA [Ex1-3: 32] (Eterna round: R96, puzzle: Exclusion 1) and report it.
20.6

Which apparent KD of MS2 coat protein is reported for this sequence? UCUCGCGGGCAAGGAUAUCCUACGUUGUUCUGGCCCGUGCAUGUUACAUGAGGAUCACCCAUGUGGGAGAAGGUGCGCCAGGGC [Design 37] (Eterna round: R96, puzzle: Exclusion NG 2)
36.7

Sample AAAAUAAAGAUGCCUUUAAACAUGAGGAUCACCCAUGUGAGUAAGGAUAUCGGAACCAAUCGCGACGAGAAGGUACUCGCGUGU [Relela] (Eterna round: R96, puzzle: Exclusion NG 3) — what was its apparent KD of MS2 coat protein?
11.1

# input sequence: GAACUGAGGCUUUGCUUUAGUCGUACAUGAGGAUCACCCAUGUAGGAUAUGGUAGGCUUUGCUUACCAGAAGGACAGAGUGAUC [JL EXNG3 1.21] (Eterna round: R96, puzzle: Exclusion NG 3) ; wanted: its apparent KD of MS2 coat protein
192

Given GUCAGCUCGUGAGGAUAUACAUCACUGCUUCGGCAGUGUAUUAAGAUCACAUGAGGAUCACCCAUGUAGAAGGCACGAGCUGAU [ENG2/2-A2] (Eterna round: R96, puzzle: Exclusion NG 2) , state its recorded apparent KD of MS2 coat protein.
27.6

For the sequence AAUGUCUGAGGAUAUCGUUUUUUGUACAUGAGGAUCACCCAUGUCCAAUUUUGUAUAUUACGAGAAGGCAGUGGAA [JR_E5_Sub089] (Eterna round: R96, puzzle: Exclusion 5) , what apparent KD of MS2 coat protein is on record?
10.7
